Recorded cAMP production inhibition EC50 by entry
biological target: human-type OT7T022 (hOT7T022) G protein-coupled receptor protein (human, UniProt Q9GZQ6 1-430); experiment: cell-based or functional assay
Sequence (Q9GZQ6 whole entry): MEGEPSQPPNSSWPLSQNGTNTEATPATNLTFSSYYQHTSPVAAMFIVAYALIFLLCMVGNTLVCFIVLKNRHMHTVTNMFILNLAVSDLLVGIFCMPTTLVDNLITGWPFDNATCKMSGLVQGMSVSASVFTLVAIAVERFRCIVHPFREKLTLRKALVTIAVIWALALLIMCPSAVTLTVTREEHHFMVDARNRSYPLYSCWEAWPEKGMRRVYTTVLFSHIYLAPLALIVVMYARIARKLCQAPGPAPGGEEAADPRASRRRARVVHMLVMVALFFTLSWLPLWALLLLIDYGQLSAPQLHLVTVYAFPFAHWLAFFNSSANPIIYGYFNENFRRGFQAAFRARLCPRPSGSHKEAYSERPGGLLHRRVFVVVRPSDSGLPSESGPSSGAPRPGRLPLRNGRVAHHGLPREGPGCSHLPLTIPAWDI
No end group written: not given here.

{"columns": ["binder", "cAMP production inhibition EC50 / nM"],
 "data": [
  ["SAGATANLPLRSGRNMEVSLVRRVPNLPQRF-NH2 (also called hRFRP-3 (31)) [human-type RFRP-3(31)]", 4.8],
  ["ATANLPLRSGRNMEVSLVRRVPNLPQRF-NH2 (also called hRFRP-3 (28)) [human-type RFRP-3(28)]", 5.1],
  ["NLPQRF-NH2 [Asn-Leu-Pro-Gln-Arg-Phe-NH2: hRFRP-3(6)]", 37],
  ["PNLPQRF-NH2 [Pro-Asn-Leu-Pro-Gln-Arg-Phe-NH2: hRFRP-3(7)]", 3.2]
]}

All values here come from patent US20040241165A1.
